Test: Body weight loss (acute toxicity) in the WiDr tumor model
Format: in vivo, nude mice
Settings: Dose 2.5 mg/kg, intravenous 5 consecutive days; body weight relative to Day 1
Quick reference for the minimum relative weight ratios among some compounds
Please reply with the number alone, leaving off any unit.

• CCC(OC)C(C)C1OC1CC(C)(O)/C=C/C=C(\C)C1OC(=O)CC(O)CCC(C)(O)C(OC(=O)N2CCN(C)CC2)/C=C/C1C (stereo not drawn) = 0.83
• CCC(O)C(C)C1OC1CC(C)(O)/C=C/C=C(\C)C1OC(=O)CC(O)CCC(C)(O)C(OC(=O)N2CCN(C)CC2)/C=C/C1C (stereo not drawn) = 0.85

Here's the next entry for you.
Prompt line: Read off the recorded the minimum relative weight ratios for CCCCN1CCN(C(=O)OC2/C=C/C(C)C(/C(C)=C/C=C/C(C)(O)CC3OC3C(C)C(O)CC)OC(=O)CC(O)CCC2(C)O)CC1 (stereo not drawn)
Response line: 0.90

---

Quick reference for response vs control in vivo at 5 mg/kg among some compounds
System: WiDr human colon cancer cells
Assay: Solid tumor growth inhibitory activities, WiDr human colon tumor model in nude mice
Type: in vivo
Details: Mus musculus, iv, 360 h, read-out: Growth inhibitory activities in the WiDr human solid tumor model (T/C %)
Report only the number, with the unit % understood.

• CCC(O)C(C)C1OC1CC(C)(O)/C=C/C=C(\C)C1OC(=O)CC(O)CCC(C)(O)C(OC(=O)N2CCCN(C)CC2)/C=C/C1C (stereo not shown) = 10
• CCC(O)C(C)C1OC1CC(C)(O)/C=C/C=C(\C)C1OC(=O)CC(O)CCC(C)(O)C(OC(=O)N2CCC(N3CCCCC3)CC2)/C=C/C1C (stereo not shown) = 39

Prompt line: Read off the recorded response vs control in vivo at 5 mg/kg for CCC(O)C(C)C1OC1CC(C)(O)/C=C/C=C(\C)C1OC(=O)CC(O)CCC(C)(O)C(OC(=O)N2CCN(C(C)C)CC2)/C=C/C1C (stereo not shown)
Response line: 19

Prompt line: Read off the recorded response vs control in vivo at 5 mg/kg for CCC(O)C(C)C1OC1CC(C)(O)/C=C/C=C(\C)C1OC(=O)CC(O)CCC(C)(O)C(OC(=O)N(C)CCN(CC)CC)/C=C/C1C (stereo not shown)
Response line: 17

---

Assay: Stability in an aqueous solution (HPLC residual ratio)
Conditions: Britton-Robinson's buffer pH 7, 25° C., 24 hours
parameter: The residual ratios (%)
Report only the number, with the unit % understood.

- CCC(O)C(C)C1OC1CC(C)(O)/C=C/C=C(\C)C1OC(=O)CC(O)CCC(C)(O)C(OC(=O)CCc2ccccc2)/C=C/C1C (stereo not drawn): 94.6
- CCC(O)C(C)C1OC1CC(C)(O)/C=C/C=C(\C)C1OC(=O)CC(O)CCC(C)(O)C(OC(=O)N2CCN(C(C)C)CC2)/C=C/C1C (stereo not drawn): 94.8
- CCC(O)C(C)C1OC1CC(C)(O)/C=C/C=C(\C)C1OC(=O)CC(O)CCC(C)(OC)C(OC(=O)N2C[C@@H]3C[C@H]2CN3CC)/C=C/C1C (stereo in doubt): 94.8
- CCC(OC)C(C)C1OC1CC(C)(O)/C=C/C=C(\C)C1OC(=O)CC(O)CCC(C)(O)C(OC(=O)N2CCN(C(C)C)CC2)/C=C/C1C (stereo not drawn): 95.1
- CCC(OC)C(C)C1OC1CC(C)(O)/C=C/C=C(\C)C1OC(=O)CC(O)CCC(C)(O)C(OC(=O)N2CCN(C)CC2)/C=C/C1C (stereo not drawn): 93.2

Here's the next entry for you.
Prompt line: Read off the recorded The residual ratios (%) for CCC(O)C(C)C1OC1CC(C)(O)/C=C/C=C(\C)C1OC(=O)CC(O)CCC(C)(O)C(OC(=O)N(C)CCN(CC)CC)/C=C/C1C (stereo not drawn)
Response line: 95.5
